B1: KCNA4 (parent)
chain: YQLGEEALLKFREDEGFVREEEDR

Variants of: B1
Assay info: protein stability index of a GFP-peptide fusion (GPS, HEK-293T) (PSI 1-6); higher = more stable;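 also: lentivirally expressed fusions sorted by FACS into six bins by GFP to DsRed ratio, PSI derived from sequencing read proportions per bin multiplied by bin number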
Test conditions: c terminus: a fixed tail appended
// FALSE strictly below 4 in protein stability index; TRUE otherwise

- YLLGEEALLKFREDEGFVREEEDR [Q2L]: TRUE
- YQLGEEALLKFREDEWFVREEEDR [G16W]: TRUE
- YQLGEEALLKFREDLGFVREEEDR [E15L]: FALSE
- YQLGEEALLLFREDEGFVREEEDR [K10L]: FALSE
- YQTGEEALLKFREDEGFVREEEDR [L3T]: TRUE
- YQLGEEALLKFREREGFVREEEDR [D14R]: FALSE
- YQLCEEALLKFREDEGFVREEEDR [G4C]: TRUE
- YQLGEEALLKFREDEGFVNEEEDR [R19N]: TRUE
- YQLGEEALLKFREDEGFPREEEDR [V18P]: TRUE
- YQLGEEALLKFREDEGFIREEEDR [V18I]: TRUE
- YQLGEEALLKFRWDEGFVREEEDR [E13W]: FALSE
- YQLGEEALLKFREDEGFVREEEDQ [R24Q]: TRUE
- YQLGEEALLKFREDEGFHREEEDR [V18H]: TRUE
- YQLGEEALLFFREDEGFVREEEDR [K10F]: FALSE
- YQLGEEALLKDREDEGFVREEEDR [F11D]: TRUE
- YQLGEEALLKFREDEGFVREEEPR [D23P]: FALSE
- YQLGEEALLKFCEDEGFVREEEDR [R12C]: FALSE
- YQLGEEALLKFREDEGFVQEEEDR [R19Q]: TRUE
- YQLGEEALLKFREDEGQVREEEDR [F17Q]: TRUE
- YQLGEEADLKFREDEGFVREEEDR [L8D]: TRUE
- YQSGEEALLKFREDEGFVREEEDR [L3S]: TRUE
- YQLGEEALLKFREDEGFVREEDDR [E22D]: TRUE
- YQLGEEALLKFRRDEGFVREEEDR [E13R]: TRUE
- YQLGEEALLKFREDEGFVAEEEDR [R19A]: TRUE
- YQLGEEALLKFLEDEGFVREEEDR [R12L]: TRUE
- YQLGNEALLKFREDEGFVREEEDR [E5N]: TRUE
- YQLGEEALLKFREDEGFVCEEEDR [R19C]: TRUE
- YQLGEEARLKFREDEGFVREEEDR [L8R]: TRUE
- YQLGEEALLKFREDEGFVRETEDR [E21T]: TRUE
- YQLGEPALLKFREDEGFVREEEDR [E6P]: TRUE
- YQLGMEALLKFREDEGFVREEEDR [E5M]: FALSE
- YQLGEEALLKFREDEGVVREEEDR [F17V]: TRUE
- YQLGEEHLLKFREDEGFVREEEDR [A7H]: TRUE
- PQLGEEALLKFREDEGFVREEEDR [Y1P]: TRUE
- YQLGEEALLKFREDEGFVREAEDR [E21A]: TRUE
- YQLGEEALLKFREDEGFVYEEEDR [R19Y]: TRUE
- YQLGEEALLKFREDESFVREEEDR [G16S]: TRUE
- YQLGEEALLKFRMDEGFVREEEDR [E13M]: FALSE
- YPLGEEALLKFREDEGFVREEEDR [Q2P]: TRUE
- YQLGEEALLKFREDEFFVREEEDR [G16F]: TRUE
- YQLNEEALLKFREDEGFVREEEDR [G4N]: TRUE
- YQLGEEALLKFREDEGFSREEEDR [V18S]: TRUE
- YQLGEEWLLKFREDEGFVREEEDR [A7W]: FALSE
- YGLGEEALLKFREDEGFVREEEDR [Q2G]: TRUE
- YQLGEEALLIFREDEGFVREEEDR [K10I]: FALSE
- YQLGEEALQKFREDEGFVREEEDR [L9Q]: TRUE
- YQLGEHALLKFREDEGFVREEEDR [E6H]: TRUE
- YQLGEEALLKFREDEGFQREEEDR [V18Q]: TRUE
- YQLGEEALLKFVEDEGFVREEEDR [R12V]: FALSE
- YQLGEEALLKFREDEVFVREEEDR [G16V]: TRUE
- YQLGEEALLKMREDEGFVREEEDR [F11M]: TRUE
- YQLGEEALLKFREDEGFVRECEDR [E21C]: FALSE
- YQLGEEALYKFREDEGFVREEEDR [L9Y]: TRUE
- YQLGENALLKFREDEGFVREEEDR [E6N]: TRUE
- YQLGEEALLKFREDEGFVREEEGR [D23G]: FALSE
- YQLGEEALLKFREDTGFVREEEDR [E15T]: FALSE
- YQLEEEALLKFREDEGFVREEEDR [G4E]: TRUE
- YQLGLEALLKFREDEGFVREEEDR [E5L]: FALSE
- FQLGEEALLKFREDEGFVREEEDR [Y1F]: TRUE
- YQLGEEALLKFREDEGFKREEEDR [V18K]: TRUE
- YQLGEEYLLKFREDEGFVREEEDR [A7Y]: TRUE
- YQLGEEALLKFREDEGFVDEEEDR [R19D]: TRUE
- HQLGEEALLKFREDEGFVREEEDR [Y1H]: TRUE
- YQLGEEALLKFREDEGFVRTEEDR [E20T]: TRUE
- YQLGEEALLKFREKEGFVREEEDR [D14K]: FALSE
- YQLGEEAELKFREDEGFVREEEDR [L8E]: TRUE
- YQLGEEALLKFYEDEGFVREEEDR [R12Y]: TRUE
- YQLGEEALVKFREDEGFVREEEDR [L9V]: TRUE
- YQLGEEALLKFREDEGFVLEEEDR [R19L]: TRUE
- YQLGEEALLKFREDGGFVREEEDR [E15G]: TRUE
- YQLGEEALLKFREDEGFVREPEDR [E21P]: TRUE
- YQLGEEALLKFRPDEGFVREEEDR [E13P]: TRUE
- YQLGEEALSKFREDEGFVREEEDR [L9S]: TRUE
- YQYGEEALLKFREDEGFVREEEDR [L3Y]: TRUE
- YQLGEYALLKFREDEGFVREEEDR [E6Y]: FALSE
- YQLGEEALLKFREDIGFVREEEDR [E15I]: FALSE
- YQLGEEALLKFREDEGFVREEEDE [R24E]: TRUE
- YQLGEEALLKFNEDEGFVREEEDR [R12N]: TRUE
- YQLGEEALLKFREDEGFMREEEDR [V18M]: TRUE
- YQLGEEALLKFRTDEGFVREEEDR [E13T]: TRUE
- YQLGEEALLKFREDEGFVREEEDC [R24C]: TRUE
